protocol.conditions: [M+Cl]-; instrument: DT; stepped-field
property.name: collision cross section (N2) (Å²)

>>> print(df.to_string())
                                   compound  assay_value
0  CCCCCCCCCCCCC=CC[C@@H](O)[C@H](COP(=O)([O-])OCC[N+](C)(C)C)NC(=O)CCCCCCCCCCCCCCCCCCCCCCC       305.77
1  CCCCCCCCCCCCC=CC[C@@H](O)[C@H](COP(=O)([O-])OCC[N+](C)(C)C)NC(=O)CC=CCCCCCCCCCCCCCCCCCCCC       304.71
2  CCCCCCCCCCCCC=CC[C@@H](O)[C@H](CO[C@@H]1O[C@H](CO)[C@@H](O)C(O)C1O)NC(=O)CCCCCCCCCCCCCCCCCCCCCCC (stereo partly drawn)       298.88

----------
protocol.conditions: [M+H]+; instrument: DT; stepped-field
property.name: collision cross section (N2) (Å²)

>>> print(df.to_string())
                                   molecule                 property_name  assay_value
0                O=C1c2ccccc2C(=O)c2ccccc21  collision cross section (N2)       141.89
1  N[C@@H](Cc1c[nH]c2ccc(O)cc12)C(=O)O [5-Hydroxy-L-Tryptophan]  collision cross section (N2)       157.88
2  CCCCC/C=C\C/C=C\CCCCCCCC(=O)OC [Methyl Linoleate]  collision cross section (N2)        187.2
3               CN(C)C(=O)Nc1ccc(Cl)c(Cl)c1  collision cross section (N2)       153.32
4                N[C@@H](Cc1ccccc1Cl)C(=O)O  collision cross section (N2)       148.86

----------
protocol.conditions: [M+Na]+; instrument: DT; stepped-field
property.name: collision cross section (N2) (Å²)

compound	collision cross section (N2) / Å²
CCCCCCCCCCCCC=CC[C@@H](O)[C@H](COP(=O)([O-])OCC[N+](C)(C)C)NC(=O)CCCCCCCCCCCCCCCCCCCC [SM(39:01)]	294.58
CCCCCCCC/C=C\CCCCCCCCCC(=O)O[C@H](COC(=O)CCCCCCCCCCC)COP(=O)(O)OCCN [PE(32:01)]	268.62
CCCCCCCCCCCCC=CC[C@@H](O)[C@H](CO[C@@H]1O[C@H](CO)[C@@H](O)C(O)C1O)NC(=O)CC=CCCCCCCCCCCCCCCCCCCCCC (some centres undefined) [GlcCer(43:02)]	302.4
CCCCC/C=C\C/C=C\CCCCCCCCCCCC(=O)O[C@H](COC(=O)CCCCCCCCCCCC)COP(=O)([O-])OCC[N+](C)(C)C [PC(35:02)]	285.81

----------
protocol.conditions: [M+Na]+; instrument: DT; stepped-field
property.name: collision cross section (N2) (Å²)

# count of solved cases: 3
                                   molecule  assay_value
0  O=C(O)CCCC[C@@H]1SC[C@@H]2NC(=O)N[C@@H]21       164.45
1  O=C(CO)[C@@H](O)[C@H](O)COP(=O)(O)O [D-Xylulose 5-Phosphate]        151.4
2                 CCCCCCCCCCCCCCCCCCCC(=O)O       199.97

A. O=c1[nH]cc(CO)c(=O)[nH]1 [5-Hydroxymethyluracil]
B. CCCCC[C@H](O)/C=C/[C@H]1CC2CC(C2)[C@@H]1C/C=C\CCCC(=O)O
### Prompt Lab log: flag the item ( A or B ) with the smaller collision cross section (N2) figure. Lab log: write the label of the selected item as the result.
### Response A

----------
protocol.conditions: [M-H]-; instrument: TW; calibrated with phosphatidylcholines (ESI+) and phosphatidylethanolamines (ESI-)
property.name: collision cross section (N2) (Å²)

molecule	collision cross section (N2) (Å²)
CCCC/C=C\C/C=C\CCCCCCCC(=O)O[C@H](COC(=O)CCCCCCC/C=C\CCCCCCCCC)COP(=O)(O)O	257.9
CCCCC/C=C\C/C=C\C/C=C\C/C=C\CCCCCC(=O)O[C@H](COC(=O)CCCCCCCCCCCCC)COP(=O)(O)O	257.1
CCCCC/C=C\C/C=C\C/C=C\CCCCCCC(=O)O[C@H](COC(=O)CCCCCCC/C=C\CCCCCC)COP(=O)(O)OCCN	265.7
CCCCC/C=C\C/C=C\C/C=C\CCCCC(=O)O[C@H](COC(=O)CCCCCCCCC/C=C\C/C=C\CCCCC)COP(=O)(O)O[C@H]1C(O)C(O)C(O)[C@@H](O)C1O (stereo partly specified)	290.9
CCCC/C=C\CCCCCCCC(=O)OC[C@H](COP(=O)(O)O[C@H]1C(O)C(O)C(O)[C@@H](O)C1O)OC(=O)CCCCCCCCC/C=C\CCCCCCCCCC (stereo partly specified)	288.7
CC/C=C\C/C=C\C/C=C\C/C=C\CCCCC(=O)OC[C@H](COP(=O)(O)O[C@H]1C(O)C(O)C(O)[C@@H](O)C1O)OC(=O)CCCCCCCCC/C=C\CCCCCCCCCC (stereo partly specified)	296.5

----------
protocol.conditions: [M+2Na-H]+; instrument: DT; stepped-field
property.name: collision cross section (N2) (Å²)

In [3]: df
Out[3]:
                                smiles_data                 property_name  units_symbol  assay_value
0  CCCCCCCC/C=C\CCCCCCCCCC(=O)O[C@H](COC(=O)CCCCCCCCCCC)COP(=O)(O)OCCN  collision cross section (N2)            Å²        268.9
1  CCCCC/C=C\C/C=C\C/C=C\CCCCC(=O)O[C@H](COCCCCCCCCCCCCCCCCCCCC)COP(=O)(O)OCCN  collision cross section (N2)            Å²       287.42
2  CCCC/C=C\CCCCCCCC(=O)OC[C@H](COP(=O)(O)O)OC(=O)CCCCCCCCC/C=C\CCCCCCCCCC  collision cross section (N2)            Å²        273.1
3  CCCCC/C=C\C/C=C\C/C=C\CCCCCCC(=O)O[C@H](COC(=O)CCCCCCC/C=C\CCCCCCC)COP(=O)(O)OC[C@H](N)C(=O)O  collision cross section (N2)            Å²       285.85

----------
protocol.conditions: [M+2Na-H]+; instrument: DT; stepped-field
property.name: collision cross section (N2) (Å²)

>>> print(df.to_string())
                                smiles_data                 property_name  units_symbol  assay_value
0  CCCCC/C=C\C/C=C\CCCCCCCC(=O)OC[C@H](COP(=O)(O)OCCN)OC(=O)CCCCCCC/C=C\CCCCCCCCC  collision cross section (N2)            Å²       282.12
1  CCCCC/C=C\C/C=C\C/C=C\C/C=C\CCCCCC(=O)O[C@H](COC(=O)CCC/C=C\C/C=C\C/C=C\C/C=C\CCCCC)COP(=O)(O)OC[C@H](N)C(=O)O  collision cross section (N2)            Å²       295.25
2  CCCCCC/C=C\CCCCCCCCCC(=O)O[C@H](COC(=O)CCCCCCCCCCCCCCC)COP(=O)(O)OCCN  collision cross section (N2)            Å²       275.64
3  CCCCC/C=C\C/C=C\CCCCCCCCCC(=O)O[C@H](COC(=O)CCCCCCC/C=C\C/C=C\CCCCC)COP(=O)(O)O  collision cross section (N2)            Å²        276.1
4  CC/C=C\C/C=C\C/C=C\C/C=C\C/C=C\CCCC(=O)OC[C@H](COP(=O)(O)OC[C@H](N)C(=O)O)OC(=O)CCCCC/C=C\C/C=C\C/C=C\C/C=C\CCCCC  collision cross section (N2)            Å²       292.63
5  CCCCC/C=C\C/C=C\CCCCCCCCCCCC(=O)O[C@H](COC(=O)CCCCCCCCCCC)COP(=O)(O)OCCN  collision cross section (N2)            Å²       273.28

----------
protocol.conditions: [M+H-H2O]+; instrument: DT; single field, calibrated with Agilent tune mix (Agilent)
property.name: collision cross section (N2) (Å²)

Illustrative cases are given below, each with its answer.
molecule	collision cross section (N2) [Å²]
C[C@]12CC[C@@H](O)C[C@H]1CC[C@@H]1[C@@H]2[C@@H](O)C[C@]2(C)[C@@H](C(=O)CO)CC[C@@H]12 [3alpha,11beta,21-Trihydroxy-5beta-pregnan-20-one]	179.6
CC1=C(/C=C/C(C)=C\C=C\C(C)=C\C(=O)O)C(C)(C)CCC1 [9-cis-Retinoic acid]	169.6

P. O=C(O)c1ccc([O-])cc1 [4-Hydroxybenzoate]
Q. CC(C)CC[C@@H](O)[C@@H](C)[C@H]1CC[C@H]2[C@@H]3CC=C4C[C@@H](O)CC[C@]4(C)[C@H]3CC[C@]12C [22beta-Hydroxycholesterol]
### Prompt // which entry reports the smaller collision cross section (N2), P or Q ? Could you answer with the label of the item you picked?
### Response P
(P: 119 Å², Q: 205.2 Å²)
